Item-by-item account of MIC
# Tested on: Staphylococcus aureus
# ASSAY_INFO: Antibacterial activity against Staphylococcus aureus ATCC 29213 assessed as inhibition of bacterial growth incubated for 18 hrs by CLSI protocol based method
# Assay type: functional
Positions of bridges follow the written chain, without caps; N, C: chain ends. Non-standard residues stand in square brackets, D forms with d. Residues, ends and D or L forms follow the SMILES beside them. ξ: configuration not given here. *: point of attachment. Octanoyl(7-Me) = CC(C)CCCCCC(=O)*; Hexanoyl(4ξ-Me) = CCC(C)CCC(=O)*; dOrn = NCCC[C@@H](N)C(=O)O; X1 = CC[C@H](C)CCCCC(=O)*; Orn = NCCC[C@H](N)C(=O)O; Dab = NCC[C@H](N)C(=O)O

| COMPOUND | MIC |
| --- | --- |
| CC[C@H](C)[C@@H]1NC(=O)[C@@H](NC(=O)[C@H](Cc2c[nH]c3ccccc23)NC(=O)[C@@H](CCCN)NC(=O)CNC(=O)[C@H](CCCN)NC(=O)[C@@H](CCCN)NC(=O)[C@@H](Cc2c[nH]c3ccccc23)NC(=O)[C@@H](Cc2ccc(O)cc2)NC(=O)[C@@H](CO)NC(=O)CCCCCC(C)C)[C@@H](C)OC(=O)CNC(=O)CNC(=O)[C@H](CC(N)=O)NC1=O ({Octanoyl(7-Me)}-[dS][dY][dW][dOrn][Orn]G[dOrn]WTINGG; ester 9-C) | > 64 µg/mL |
| CC[C@H](C)CCCCC(=O)N[C@@H](CCN)C(=O)N[C@H](C(=O)N[C@@H](CCN)C(=O)N[C@H]1CCNC(=O)[C@H]([C@@H](C)O)NC(=O)[C@H](CCN)NC(=O)[C@H](CCN)NC(=O)[C@H](CC(C)C)NC(=O)[C@@H](Cc2ccccc2)NC(=O)[C@H](CCN)NC1=O)[C@@H](C)O (X1-[Dab]T[Dab][Dab][Dab][dF]L[Dab][Dab]T; lactam 4-C) | > 64 µg/mL |
| CCC(C)CCC(=O)N[C@H](CC(N)=O)C(=O)N[C@H](Cc1ccc(O)cc1)C(=O)N[C@H](Cc1c[nH]c2ccccc12)C(=O)N[C@H](CCCN)C(=O)N[C@@H](CCCN)C(=O)NCC(=O)N[C@H](CCCN)C(=O)N[C@@H](Cc1c[nH]c2ccccc12)C(=O)N[C@@H]1C(=O)N[C@@H]([C@@H](C)CC)C(=O)NCC(=O)N[C@@H](CO)C(=O)O[C@@H]1C (some centres undefined) ({Hexanoyl(4ξ-Me)}-[dN][dY][dW][dOrn][Orn]G[dOrn]WTIGS; ester 9-C) | > 64 µg/mL |
| CC1(C)S[C@@H]2[C@H](NC(=O)[C@H](N)c3ccc(O)cc3)C(=O)N2[C@H]1C(=O)O | 3 µg/mL |
